Test system: SK-OV-3 ovarian
protocol.details: NCI tumour cell line growth inhibition, 48 h
Answer each item with its documented TGI.
Numbers only, in µM.

Example cases with answers are listed next.
INSERT INTO results (compound, result_number) VALUES
  ('CN(C)CCNc1c2ccccc2nc2oc3ccccc3c12', 28.5),
  ('O=S1(=O)OCCOS(=O)(=O)C1Cc1cccc2ccccc12', 70.7),
  ('CCOc1ccccc1-c1nc2c(s1)C(=O)c1ccccc1C2=O', 28.2);

Would you kindly look at the next entry?
Note to self: TGI recorded for CCCCNC(=O)C1C2CCC(O2)C1C(=O)O (stereo not given) was 53.7

----------
Tested on: HOP-18 NSCLC
protocol.details: NCI tumour cell line growth inhibition, 48 h
assay.readout: TGI

Example cases with answers are listed next.
INSERT INTO results (molecule, assay_readout, result) VALUES
  ('CCOC(=O)C(CC/C=C\c1ccccc1)N1CCC[C@H]1C(=O)OC (stereo partly specified)', 'TGI', '> 100 µM'),
  ('COC(=O)C(Br)C1CCc2ccccc21 (stereo unspecified)', 'TGI', '> 100 µM');

Working through the 5 molecules below one at a time, give TGI for each.
1. CC(C)(C)c1ccc(OCCOCCOc2ccc(C(C)(C)C)cc2S(=O)(=O)Nc2ccc([N+](=O)[O-])cc2)c(S(=O)(=O)Nc2ccc([N+](=O)[O-])cc2)c1
2. CC(=O)[CH-]C(=O)c1ccccc1.CC(=O)[CH-]C(=O)c1ccccc1.Cc1cc([O-])ccc1Cl.Cc1cc([O-])ccc1Cl.[Ti+4]
3. O=C(c1ccccc1)c1nc2ccc(Cl)cc2c2c1CCCO2
4. Cc1ccc(C(=O)/C=C/c2cccc([N+](=O)[O-])c2)cc1
5. COc1ccc2c3c(c(C(=O)c4ccccc4)oc13)CCC2

a:
["> 100 µM", "> 100 µM", "> 100 µM", "> 100 µM", "> 100 µM"]
